Target: FAAH (Homo sapiens (Human), UniProt O00519)
Sequence (O00519 whole entry): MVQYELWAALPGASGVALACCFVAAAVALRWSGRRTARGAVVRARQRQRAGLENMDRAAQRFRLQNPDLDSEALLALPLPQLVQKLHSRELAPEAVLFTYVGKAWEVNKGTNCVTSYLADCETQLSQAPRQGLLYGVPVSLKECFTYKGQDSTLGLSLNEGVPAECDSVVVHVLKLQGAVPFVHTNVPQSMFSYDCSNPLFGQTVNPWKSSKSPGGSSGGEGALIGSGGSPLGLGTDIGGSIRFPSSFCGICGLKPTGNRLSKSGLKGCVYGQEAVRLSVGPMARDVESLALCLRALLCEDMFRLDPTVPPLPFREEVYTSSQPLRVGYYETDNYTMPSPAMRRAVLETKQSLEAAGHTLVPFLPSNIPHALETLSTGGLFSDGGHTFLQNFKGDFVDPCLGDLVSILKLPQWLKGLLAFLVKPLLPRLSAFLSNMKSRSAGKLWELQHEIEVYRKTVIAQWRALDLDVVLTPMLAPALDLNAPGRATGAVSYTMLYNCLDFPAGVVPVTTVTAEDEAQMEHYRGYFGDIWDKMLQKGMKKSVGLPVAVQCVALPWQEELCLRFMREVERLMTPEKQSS
Test: In vitro competitive activity-based protein profiling (human prefrontal cortex membrane fractions, FP-Rh probe), FAAH band
Conditions: read-out: FAAH IC50 (μM) (human); human prefrontal cortex membrane fractions
Catalogue of IC50 readings, one per entry.

Illustrative cases are given below, each with its answer.
molecule	IC50
NC(=O)c1ccn(C(=O)N2CC3CN(Cc4cccc(C(F)(F)F)c4)CC3C2)n1 (stereo not shown)	< 0.1 µM
C#Cc1ccc(CN2CCN(C(=O)n3ccc(C(N)=O)n3)CC2)cc1	< 0.1 µM
NC(=O)c1ccn(C(=O)N2CC3CN(Cc4cc(Cl)cc(C(F)(F)F)c4)CC3C2)n1 (stereo not shown)	< 0.1 µM
CN(Cc1ccccc1C(F)(F)F)[C@@H]1C[C@@H]2CN(C(=O)n3ccc(C(N)=O)n3)C[C@@H]2C1	< 0.1 µM
CN(Cc1ccccc1Cl)[C@H]1C[C@@H]2CN(C(=O)n3cc(Cl)c(C(N)=O)n3)C[C@@H]2C1	< 0.1 µM

Consider the molecule shown here: CN(Cc1ccccc1Cl)[C@H]1C[C@@H]2CN(C(=O)n3ccc(C(N)=O)n3)C[C@@H]2C1 What is its recorded IC50?
< 0.1 µM

Follow-up entry: O=C(O)c1ccn(C(=O)N2C[C@H]3C[C@H](Oc4cccc(-c5ccccc5)c4)C[C@H]3C2)n1
< 0.1 µM

The measured values listed here are drawn from patent US10927105B1.
